- assayed.system: EGFR (Hamster) (UniProt P00533)
- Sequence (P00533 whole entry, looked up): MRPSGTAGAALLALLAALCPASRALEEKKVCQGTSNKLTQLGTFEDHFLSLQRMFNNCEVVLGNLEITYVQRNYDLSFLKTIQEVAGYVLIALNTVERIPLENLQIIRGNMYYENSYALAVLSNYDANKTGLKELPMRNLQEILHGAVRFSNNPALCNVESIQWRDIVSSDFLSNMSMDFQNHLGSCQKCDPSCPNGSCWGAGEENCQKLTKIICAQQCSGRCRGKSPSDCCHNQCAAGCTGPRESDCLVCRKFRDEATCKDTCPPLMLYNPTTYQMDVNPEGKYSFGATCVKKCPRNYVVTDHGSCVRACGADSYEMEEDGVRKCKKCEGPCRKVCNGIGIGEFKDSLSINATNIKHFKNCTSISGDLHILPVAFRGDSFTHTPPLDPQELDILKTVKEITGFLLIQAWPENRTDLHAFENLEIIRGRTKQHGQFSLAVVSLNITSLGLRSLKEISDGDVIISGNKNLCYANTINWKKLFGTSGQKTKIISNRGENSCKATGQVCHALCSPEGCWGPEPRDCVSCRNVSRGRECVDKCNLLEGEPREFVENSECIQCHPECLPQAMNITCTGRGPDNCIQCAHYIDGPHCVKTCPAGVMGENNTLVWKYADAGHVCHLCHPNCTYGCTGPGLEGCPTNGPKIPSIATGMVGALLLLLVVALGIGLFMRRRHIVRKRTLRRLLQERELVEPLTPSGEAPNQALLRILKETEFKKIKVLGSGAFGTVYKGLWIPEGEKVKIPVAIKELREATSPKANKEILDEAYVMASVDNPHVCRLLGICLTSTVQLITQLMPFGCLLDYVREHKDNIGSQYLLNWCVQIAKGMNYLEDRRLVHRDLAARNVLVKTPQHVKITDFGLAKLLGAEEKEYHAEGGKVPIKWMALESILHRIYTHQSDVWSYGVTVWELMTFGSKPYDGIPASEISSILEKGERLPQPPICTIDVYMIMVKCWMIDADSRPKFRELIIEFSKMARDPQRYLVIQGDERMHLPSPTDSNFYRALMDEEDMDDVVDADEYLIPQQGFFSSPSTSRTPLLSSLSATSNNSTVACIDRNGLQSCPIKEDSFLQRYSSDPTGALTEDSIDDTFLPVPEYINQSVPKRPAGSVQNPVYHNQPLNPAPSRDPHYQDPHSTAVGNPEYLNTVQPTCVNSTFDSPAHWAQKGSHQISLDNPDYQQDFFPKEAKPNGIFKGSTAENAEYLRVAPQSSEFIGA
- measurement.context: er22
measurement.label: IC50 (µM)
Unit µM implied. Number only.

stdin: Can you look up IC50 on EGFR (Hamster) (UniProt P00533) for COC(=O)c1cc(NCc2cc(O)ccc2O)ccc1O ?
stdout: 9

====

For each entry below, report its IC50 value.
- assayed.system: PIK3CA (human) (UniProt P42336)
- Sequence (P42336 whole entry, looked up): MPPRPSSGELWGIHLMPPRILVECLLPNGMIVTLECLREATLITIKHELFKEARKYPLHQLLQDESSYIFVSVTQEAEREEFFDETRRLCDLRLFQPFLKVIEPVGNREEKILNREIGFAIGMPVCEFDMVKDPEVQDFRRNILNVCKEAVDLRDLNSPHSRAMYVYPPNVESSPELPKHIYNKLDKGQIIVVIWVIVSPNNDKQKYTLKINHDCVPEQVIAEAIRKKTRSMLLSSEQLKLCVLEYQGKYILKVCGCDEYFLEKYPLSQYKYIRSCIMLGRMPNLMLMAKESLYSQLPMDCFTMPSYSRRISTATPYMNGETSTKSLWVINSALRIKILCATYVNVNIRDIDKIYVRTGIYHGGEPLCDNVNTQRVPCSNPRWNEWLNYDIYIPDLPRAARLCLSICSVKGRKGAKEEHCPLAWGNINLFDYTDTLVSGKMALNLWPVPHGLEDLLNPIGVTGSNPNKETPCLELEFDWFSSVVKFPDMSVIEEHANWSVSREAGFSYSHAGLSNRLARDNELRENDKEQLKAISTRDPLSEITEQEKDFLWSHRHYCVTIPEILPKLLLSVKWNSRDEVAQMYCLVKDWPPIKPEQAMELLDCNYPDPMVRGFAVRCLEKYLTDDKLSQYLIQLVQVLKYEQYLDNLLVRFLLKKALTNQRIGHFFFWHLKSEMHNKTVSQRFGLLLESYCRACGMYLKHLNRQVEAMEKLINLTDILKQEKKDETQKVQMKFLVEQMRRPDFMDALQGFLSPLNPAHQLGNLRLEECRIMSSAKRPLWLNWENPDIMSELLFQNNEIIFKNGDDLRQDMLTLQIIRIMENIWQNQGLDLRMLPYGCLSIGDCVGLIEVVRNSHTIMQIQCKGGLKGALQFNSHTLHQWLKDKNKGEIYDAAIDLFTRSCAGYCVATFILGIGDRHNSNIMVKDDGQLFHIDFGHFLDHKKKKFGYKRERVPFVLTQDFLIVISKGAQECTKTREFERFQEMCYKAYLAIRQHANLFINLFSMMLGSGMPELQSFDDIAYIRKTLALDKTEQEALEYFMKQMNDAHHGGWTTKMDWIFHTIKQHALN
- measurement.notes: Enzyme Assay
Unit nM implied. Number only.

stdin: For CN1CCN(c2ccc(Nc3ncc4cc(C#N)c(=O)n(C5CCCC5)c4n3)cc2)CC1 , what is its reported IC50?
stdout: 1060

stdin: For O=C(c1nn([C@@H]2CCCN(CCN3CCOCC3)C2)c2c1CS(=O)(=O)c1c(F)cccc1-2)N1CCOCC1 , what is its reported IC50?
stdout: 7650

stdin: For CN1CCN(c2cnc3ccc(-c4cnc(N)c(S(=O)(=O)N(C)C)c4)cc3n2)CC1 , what is its reported IC50?
stdout: 16

stdin: For CCN1CC(C)(C)Oc2nc(N3CC4CCC(C3)O4)nc(-c3ccc(NC(=O)Nc4ccn(C)n4)cc3)c2C1=O , what is its reported IC50?
stdout: 4200

====

For each entry below, report its pIC50 value.
- assayed.system: EGFR (human)
- measurement.context: kb
# reply with the number alone; pIC50 is -log10 of concentration in mol/L

stdin: For CNC(=O)CN1CCC(Oc2cc3c(Nc4ccc(F)c(Cl)c4F)ncnc3cc2OC)CC1 , what is its reported pIC50?
stdout: 8.05

stdin: For COc1cc2ncnc(Nc3cccc(Cl)c3F)c2cc1OC1CCN(CC(=O)NCCN2CCCC2)CC1 , what is its reported pIC50?
stdout: 7.77

====

For each entry below, report its pIC50 value.
- assayed.system: CDK2 (UniProt P24941)
- measurement.notes: Enzyme Assay
# reply with the number alone; pIC50 is -log10 of concentration in mol/L

stdin: For CCCCOc1cc(Nc2ccc(S(N)(=O)=O)cc2)nc(N)c1C(=O)c1c(F)cccc1F , what is its reported pIC50?
stdout: 7.15

stdin: For Cc1nc[nH]c1/C=C1\C(=O)Nc2ncnc(N3CCN(C)CC3)c21 , what is its reported pIC50?
stdout: 8.00

stdin: For COCCOCCCNc1nc(N[C@H]2CC[C@H](N)CC2)nc2c1ncn2C1CCCC1 , what is its reported pIC50?
stdout: 7.80

stdin: For O=C1CN=C2C=NC(Nc3ccc(N4CCNCC4)cc3)=NC2N1C1CCCC1 (configuration not stated) , what is its reported pIC50?
stdout: 6.74

stdin: For Cc1n[nH]c2c(N/C=C/C(C)C)ncnc12 , what is its reported pIC50?
stdout: 4.36

stdin: For CC(=O)N[C@H]1CC[C@H](Nc2nc(NCc3ccc(-c4ccccn4)cc3)c3ncn(C(C)C)c3n2)CC1 , what is its reported pIC50?
stdout: 7.00

stdin: For CCn1c(-c2nonc2N)nc2cnc(Oc3cccc(N)c3)cc21 , what is its reported pIC50?
stdout: 5.24

stdin: For Nc1n[nH]c(N)c1N=Nc1ccc(Br)cc1 , what is its reported pIC50?
stdout: 4.00

stdin: For CCn1c(-c2nonc2N)nc2cnc(OC)cc21 , what is its reported pIC50?
stdout: 6.62

stdin: For CC(C(=O)Nc1cc(C2CC2)[nH]n1)c1ccc(N2CCCC2)cc1 (configuration not stated) , what is its reported pIC50?
stdout: 6.70

stdin: For Cc1ccc(N=Nc2c(N)n[nH]c2N)cc1 , what is its reported pIC50?
stdout: 4.00

stdin: For Nc1n[nH]c(N)c1N=Nc1ccc(C(=O)O)cc1 , what is its reported pIC50?
stdout: 4.00

stdin: For Cc1c(C(=O)O)c[nH]c1/C=C1\C(=O)Nc2ccc3c(c21)CCOS3(=O)=O , what is its reported pIC50?
stdout: 8.15

stdin: For CCCCOc1cc(NC(=S)Nc2ccccc2)nc(N)c1C(=O)c1c(F)cccc1F , what is its reported pIC50?
stdout: 4.00

stdin: For CC(=O)N[C@H]1CC[C@H](Nc2nc(NCc3ccc(-c4ccsc4)cc3)c3ncn(C(C)C)c3n2)CC1 , what is its reported pIC50?
stdout: 6.10

====

- assayed.system: CDK2 (human) (UniProt P24941)
- measurement.notes: Enzyme Assay
For each entry below, report its IC50 value.

stdin: Can you look up IC50 on CDK2 (human) (UniProt P24941) for O=[N+]([O-])c1cnn2c(NCc3cccnc3)cc(-c3ccccc3)nc12 ?
stdout: > 50000 nM

stdin: Can you look up IC50 on CDK2 (human) (UniProt P24941) for O=S1(=O)NCCCSc2nc(ncc2Br)Nc2cccc1c2 ?
stdout: < 10 nM

stdin: Can you look up IC50 on CDK2 (human) (UniProt P24941) for COc1ccccc1-c1cc(Nc2cccc(CS(=O)(=O)N(C)C)c2)ncn1 ?
stdout: < 2000 nM

====

- assayed.system: CDK2 (UniProt P24941)
- measurement.notes: Enzyme Assay
For each entry below, report its IC50 value.
Unit nM implied. Number only.

stdin: For CCOC(=O)CNC(=O)c1c[nH]c(/C=C2\C(=O)Nc3ccc4c(c32)CCOS4(=O)=O)c1C , what is its reported IC50?
stdout: 30

stdin: For Clc1ccccc1-c1cc(NCc2cncnc2)c2ncc(Br)n2c1 , what is its reported IC50?
stdout: 36

stdin: For N[C@H]1CC[C@H](Nc2nc(NCc3ccc4c(c3)OCO4)c3ncn(C4CCCC4)c3n2)CC1 , what is its reported IC50?
stdout: 5100

stdin: For NS(=O)(=O)c1ccc(Nc2nccc(-c3cnc4ccccn34)n2)cc1 , what is its reported IC50?
stdout: 3

stdin: For CCn1c(-c2nonc2N)nc2cnc(Oc3cccc(C(C)=O)c3)cc21 , what is its reported IC50?
stdout: 5980

stdin: For CCn1c(-c2nonc2N)nc2cnccc21 , what is its reported IC50?
stdout: 418

stdin: For O=C1Nc2ccc(F)cc2/C1=C/c1ccc[nH]1 , what is its reported IC50?
stdout: 380

stdin: For COc1ccc(-c2[nH]nc3c2C(=O)c2c(NC(=O)N(C)C)cccc2-3)cc1 , what is its reported IC50?
stdout: 5

stdin: For CNC(=O)N1CCN(Cc2ccnc(Nc3ncc(C#N)s3)c2C)CC1 , what is its reported IC50?
stdout: 13700

stdin: For Cc1nc[nH]c1/C=C1\C(=O)Nc2ncnc(N3CCOCC3)c21 , what is its reported IC50?
stdout: 40

====

- assayed.system: PIK3CA (human) (UniProt P42336)
- measurement.notes: Enzyme Assay
pIC50: −log10 of the molar value.
measurement.label: pIC50

stdin: For CN1CC(C)(C)Oc2nc(N3CC4CCC(C3)O4)nc(-c3ccc(NC(=O)Nc4ccc(N5CC6CCC(C5)O6)nc4)c(F)c3)c2C1=O , what is its reported pIC50?
stdout: < 5.00

stdin: For C=CC(=O)N1CCC[C@@H](n2nc(-c3ccc(Oc4ccccc4)cc3)c3c(N)ncnc32)C1 , what is its reported pIC50?
stdout: < 5.00

stdin: For COc1ncc(-c2cn3cc(CN4CCN(S(C)(=O)=O)CC4)nc3c(N3CCOCC3)n2)cn1 , what is its reported pIC50?
stdout: 6.00 to 7.00

====

- assayed.system: MAPK14 (human)
- measurement.notes: Inhibition of MAPK14 Kinase Activity
For each entry below, report its IC50 value.

stdin: For COCC(=O)Nc1cc(Oc2ccc(NC(=O)Nc3cc(C(C)(C)C)nn3-c3ccc(C)nc3)c3ccccc23)ccn1 , what is its reported IC50?
stdout: < 200 nM

stdin: For Cc1ccc(S(=O)(=O)Nc2ccc(F)c(C(=O)c3c[nH]c4ncc(Cl)cc34)c2F)s1 , what is its reported IC50?
stdout: ≤ 10000 nM

stdin: For CC(C)c1nnc2ccc(Sc3ccccc3CNC(=O)Nc3cc(C(C)(C)C)nn3-c3ccc(O)c(Cl)c3)cn12 , what is its reported IC50?
stdout: 0.8 nM

====

- assayed.system: ROCK2 (human) (UniProt O75116)
- Sequence (O75116 whole entry, looked up): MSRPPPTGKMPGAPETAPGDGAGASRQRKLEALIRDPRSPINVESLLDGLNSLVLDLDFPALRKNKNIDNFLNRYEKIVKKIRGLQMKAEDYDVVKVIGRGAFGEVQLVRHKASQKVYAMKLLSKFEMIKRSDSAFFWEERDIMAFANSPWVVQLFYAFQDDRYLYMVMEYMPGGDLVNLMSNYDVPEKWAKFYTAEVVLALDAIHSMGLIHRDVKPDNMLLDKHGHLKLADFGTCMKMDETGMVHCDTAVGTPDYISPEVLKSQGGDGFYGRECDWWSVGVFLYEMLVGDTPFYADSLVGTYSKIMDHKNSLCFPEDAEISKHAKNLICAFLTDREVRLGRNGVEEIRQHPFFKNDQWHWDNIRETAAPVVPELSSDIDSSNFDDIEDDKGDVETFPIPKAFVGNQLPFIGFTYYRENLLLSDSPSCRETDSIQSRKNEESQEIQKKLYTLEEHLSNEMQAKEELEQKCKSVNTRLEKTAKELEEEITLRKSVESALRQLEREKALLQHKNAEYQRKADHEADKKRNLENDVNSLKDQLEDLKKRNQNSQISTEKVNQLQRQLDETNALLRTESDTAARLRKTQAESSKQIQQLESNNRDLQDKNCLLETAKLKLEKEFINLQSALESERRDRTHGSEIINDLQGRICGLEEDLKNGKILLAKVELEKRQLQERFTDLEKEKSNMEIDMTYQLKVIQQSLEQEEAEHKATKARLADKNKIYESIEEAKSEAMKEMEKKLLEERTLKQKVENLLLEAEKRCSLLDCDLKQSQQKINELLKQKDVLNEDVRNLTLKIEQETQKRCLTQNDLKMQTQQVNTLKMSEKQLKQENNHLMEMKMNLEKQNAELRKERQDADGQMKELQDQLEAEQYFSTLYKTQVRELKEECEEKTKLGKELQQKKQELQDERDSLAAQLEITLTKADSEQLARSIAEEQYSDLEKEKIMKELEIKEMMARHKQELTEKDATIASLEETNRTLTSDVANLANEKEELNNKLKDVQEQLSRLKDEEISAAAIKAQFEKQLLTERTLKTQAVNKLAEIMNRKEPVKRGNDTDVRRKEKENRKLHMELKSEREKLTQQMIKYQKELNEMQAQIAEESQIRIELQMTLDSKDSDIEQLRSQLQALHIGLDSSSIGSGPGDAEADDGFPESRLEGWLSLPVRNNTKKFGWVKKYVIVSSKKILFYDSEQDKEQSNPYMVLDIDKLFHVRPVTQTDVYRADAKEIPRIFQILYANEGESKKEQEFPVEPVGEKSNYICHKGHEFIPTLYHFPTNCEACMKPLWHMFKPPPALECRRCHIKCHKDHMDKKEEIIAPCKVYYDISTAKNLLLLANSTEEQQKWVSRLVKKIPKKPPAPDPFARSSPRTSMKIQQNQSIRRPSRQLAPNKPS
- measurement.notes: Inhibition of ROCK2 Kinase Activity
Please respond with Met when measured IC50 is strictly beneath 90 nM, and with Not met in all other cases.

stdin: In the record for CSCc1ccc(CN2CCCC(Nc3ccc4[nH]ncc4c3)C2)cc1 (stereo unspecified) , is IC50 less than 90 nM?
stdout: Not met

stdin: In the record for CNCC(=O)N1CCCN(S(=O)(=O)c2cccc3cncc(F)c23)[C@@H](C)C1 , is IC50 less than 90 nM?
stdout: Met

stdin: In the record for COc1cccc(CNC(=O)c2c[nH]c3cc(-c4cn[nH]c4)ccc23)c1 , is IC50 less than 90 nM?
stdout: Met

stdin: In the record for Cc1c[nH]c2nccc(Nc3ccc(Nc4cc(Cl)nc(N)n4)cc3F)c12 , is IC50 less than 90 nM?
stdout: Met

stdin: In the record for Nc1nc(Nc2ccc(Sc3ccncc3)c(F)c2)cc(N2C[C@H]3CCCN[C@H]3C2)n1 , is IC50 less than 90 nM?
stdout: Met

From: the Kinase Knowledgebase extract (Sharma et al. 2016)
